Catalogue of compounds with associated viability, T/C
Tested on: 616215-338-R-J1-PDC complex spheroid viability
run description: Anticancer human tumor 616215-338-R-J1-PDC patient-derived colon adenocarcinoma cell line growth inhibition [POLQ]
reported conditions: second compound 0.0316 µM; first compound 3.16 µM; active compounds read low

{"columns": ["compound", "viability, T/C"],
 "data": [
  ["CC(C)n1c(=O)n(C)c2cnc3cc(F)c(-c4ccc(OCCCN5CCCCC5)nc4)cc3c21 + COC1C(OC(N)=O)C(O)C(Oc2ccc3c(O)c(NC(=O)c4ccc(O)c(CC=C(C)C)c4)c(=O)oc3c2C)OC1(C)C", "130%"],
  ["O=C(Nc1ccc(O)c(NS(=O)(=O)c2ccc(F)cc2)c1)c1ccc(-c2ccccc2)cc1 + Nc1ccc(C#CCN(C(=O)Cc2ncc(C(F)(F)F)cc2C(F)(F)F)c2ccc(F)cc2)nn1", "119%"],
  ["COc1cc2cc(C(=O)CCC(=O)O)sc2cc1OC + Nc1ccc(C#CCN(C(=O)Cc2ncc(C(F)(F)F)cc2C(F)(F)F)c2ccc(F)cc2)nn1", "109%"],
  ["O=c1[nH]cc(F)c(=O)[nH]1 + Cc1cccc(N(C)C(=O)C2C(O)CCN2c2nc(C)cc(C(F)(F)F)c2C#N)c1", "61.2%"]
]}

* * *

Tested on: 616215-338-R-J1-PDC complex spheroid viability
run description: Anticancer human tumor 616215-338-R-J1-PDC cell line growth inhibition [POLQ];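 further: spheroids exposed to compounds for one week before readout; percent viability relative to DMSO vehicle wells taken as 100%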
reported conditions: second compound 0.0316 µM; first compound 0.1 µM; active compounds read low
Catalogue of compounds with associated viability, T/C
readout kind: viability, T/C (%)

{"columns": ["compound", "readout kind", "reading"],
 "data": [
  ["CC1COCCN1c1cc(C2(S(C)(=N)=O)CC2)nc(-c2ccnc3[nH]ccc23)n1 (stereo not drawn) + COC1C(OC(N)=O)C(O)C(Oc2ccc3c(O)c(NC(=O)c4ccc(O)c(CC=C(C)C)c4)c(=O)oc3c2C)OC1(C)C", "viability, T/C", 104],
  ["COc1cccc(OCCCN)c1-c1cc(Nc2cnc(C#N)cn2)n[nH]1 + Nc1ccc(C#CCN(C(=O)Cc2ncc(C(F)(F)F)cc2C(F)(F)F)c2ccc(F)cc2)nn1", "viability, T/C", 53.8],
  ["O=C(c1cc(Cc2n[nH]c(=O)c3ccccc23)ccc1F)N1CCN(C(=O)C2CC2)CC1 + COC1C(OC(N)=O)C(O)C(Oc2ccc3c(O)c(NC(=O)c4ccc(O)c(CC=C(C)C)c4)c(=O)oc3c2C)OC1(C)C", "viability, T/C", 99.2],
  ["CCc1cc2c(N3CCc4c(cc(Cn5ccnc5)cc4-c4cn(C)nc4C(F)(F)F)C3=O)ccnc2c(OC)n1 + Nc1ccc(C#CCN(C(=O)Cc2ncc(C(F)(F)F)cc2C(F)(F)F)c2ccc(F)cc2)nn1", "viability, T/C", 111],
  ["O=C(Nc1ccc(O)c(NS(=O)(=O)c2ccc(F)cc2)c1)c1ccc(-c2ccccc2)cc1 + Cc1cccc(N(C)C(=O)C2C(O)CCN2c2nc(C)cc(C(F)(F)F)c2C#N)c1", "viability, T/C", 105],
  ["COc1cccc(OCCCN)c1-c1cc(Nc2cnc(C#N)cn2)n[nH]1 + COC1C(OC(N)=O)C(O)C(Oc2ccc3c(O)c(NC(=O)c4ccc(O)c(CC=C(C)C)c4)c(=O)oc3c2C)OC1(C)C", "viability, T/C", 76.1],
  ["COc1cccc2c1C(=O)c1c(O)c3c(c(O)c1C2=O)CC(O)(C(=O)CO)CC3OC1CC(N)C(O)C(C)O1 (stereo not drawn) + Nc1ccc(C#CCN(C(=O)Cc2ncc(C(F)(F)F)cc2C(F)(F)F)c2ccc(F)cc2)nn1", "viability, T/C", 50.3],
  ["CC[C@@]1(O)C(=O)OCc2c1cc1n(c2=O)Cc2cc3c(CN(C)C)c(O)ccc3nc2-1 + Cc1cccc(N(C)C(=O)C2C(O)CCN2c2nc(C)cc(C(F)(F)F)c2C#N)c1", "viability, T/C", 82.5],
  ["CC1COCCN1c1cc(C2(S(C)(=N)=O)CC2)nc(-c2ccnc3[nH]ccc23)n1 (stereo not drawn) + Cc1cccc(N(C)C(=O)C2C(O)CCN2c2nc(C)cc(C(F)(F)F)c2C#N)c1", "viability, T/C", 104],
  ["C=CC(=O)N1CCN(c2nc(=O)n(-c3c(C)ccnc3C(C)C)c3nc(-c4c(O)cccc4F)c(F)cc23)C(C)C1 (stereo not drawn) + COC1C(OC(N)=O)C(O)C(Oc2ccc3c(O)c(NC(=O)c4ccc(O)c(CC=C(C)C)c4)c(=O)oc3c2C)OC1(C)C", "viability, T/C", 99.7],
  ["COc1cc(C2c3cc4c(cc3C(OC3OC5COC(C)OC5C(O)C3O)C3COC(=O)C23)OCO4)cc(OC)c1O (stereo not drawn) + Cc1cccc(N(C)C(=O)C2C(O)CCN2c2nc(C)cc(C(F)(F)F)c2C#N)c1", "viability, T/C", 102],
  ["CC1COCCN1c1cc(-c2ccnn2C)c2ccnc(-c3ccn[nH]3)c2n1 (stereo not drawn) + Nc1ccc(C#CCN(C(=O)Cc2ncc(C(F)(F)F)cc2C(F)(F)F)c2ccc(F)cc2)nn1", "viability, T/C", 56.8],
  ["C=CC(=O)N1CCN(c2nc(=O)n(-c3c(C)ccnc3C(C)C)c3nc(-c4c(O)cccc4F)c(F)cc23)C(C)C1 (stereo not drawn) + Nc1ccc(C#CCN(C(=O)Cc2ncc(C(F)(F)F)cc2C(F)(F)F)c2ccc(F)cc2)nn1", "viability, T/C", 99.3]
]}

* * *

System: 616215-338-R-J1-PDC complex spheroid viability
run description: Anticancer human tumor 616215-338-R-J1-PDC cell line growth inhibition [POLQ];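 further: spheroids exposed to compounds for one week before readout; percent viability relative to DMSO vehicle wells taken as 100%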
reported conditions: second compound 10 µM; first compound 0.1 µM; active compounds read low
Method: Multicellular complex tumor spheroid response to Polymerase (POL) inhibitors (novobiocin, ART-558, RP6685) in combination with a variety of drugs and investigational agents in selected tumor cell lines The POL inhibitors (novobiocin, ART-558, and RP6685) were evaluated both individually and in combination with standard of care and investigational anticancer small molecules within a complex spheroid model of solid tumors. . […]

{"columns": ["compound", "viability, T/C / %"],
 "data": [
  ["CC1COCCN1c1cc(C2(S(C)(=N)=O)CC2)nc(-c2ccnc3[nH]ccc23)n1 (stereo unspecified) + Cc1cccc(N(C)C(=O)C2C(O)CCN2c2nc(C)cc(C(F)(F)F)c2C#N)c1", 111],
  ["O=C(c1cc(Cc2n[nH]c(=O)c3ccccc23)ccc1F)N1CCN(C(=O)C2CC2)CC1 + COC1C(OC(N)=O)C(O)C(Oc2ccc3c(O)c(NC(=O)c4ccc(O)c(CC=C(C)C)c4)c(=O)oc3c2C)OC1(C)C", 94],
  ["CC1COCCN1c1cc(C2(S(C)(=N)=O)CC2)nc(-c2ccnc3[nH]ccc23)n1 (stereo unspecified) + Nc1ccc(C#CCN(C(=O)Cc2ncc(C(F)(F)F)cc2C(F)(F)F)c2ccc(F)cc2)nn1", 91.5],
  ["Nc1ccn(C2OC(CO)C(O)C2(F)F)c(=O)n1 (stereo unspecified) + Cc1cccc(N(C)C(=O)C2C(O)CCN2c2nc(C)cc(C(F)(F)F)c2C#N)c1", 40.5],
  ["COc1cccc(OCCCN)c1-c1cc(Nc2cnc(C#N)cn2)n[nH]1 + Nc1ccc(C#CCN(C(=O)Cc2ncc(C(F)(F)F)cc2C(F)(F)F)c2ccc(F)cc2)nn1", 41.2],
  ["Cn1ncnc1[C@H]1c2n[nH]c(=O)c3cc(F)cc(c23)N[C@@H]1c1ccc(F)cc1 + Nc1ccc(C#CCN(C(=O)Cc2ncc(C(F)(F)F)cc2C(F)(F)F)c2ccc(F)cc2)nn1", 65.1]
]}
